Values from ChEMBL document CHEMBL5537196

# TEST: Aqueous solubility of the compound at pH 2
# Assay type: physicochemical
RECORDED_ENDPOINT: solubility (µM)

| COMPOUND | UNIT_DESCRIPTOR | ENDPOINT_RESULT |
| --- | --- | --- |
| C=CC(=O)N1C[C@@H](n2nc(C#Cc3c(F)cc4c(ncn4C4CC4)c3F)c(C(N)=O)c2NC)C[C@@H]1COC [RESIGRATINIB] | µM | 301 |

---

# TEST: Antiproliferative activity against human ICC13-7 cells expressing FGFR2 N550K mutant assessed as inhibition of cell growth incubated for 10 days by Cell-titer glo assay
# CONDITION_LABEL: ICC13-7, 240 h
pIC50: −log10 of the molar value.
Below, each entry is listed with its recorded pIC50.
RECORDED_ENDPOINT: pIC50

| COMPOUND | RECORDED_ENDPOINT | ENDPOINT_RESULT |
| --- | --- | --- |
| CCN1CCN(c2ccc(Nc3cc(N(C)C(=O)Nc4c(Cl)c(OC)cc(OC)c4Cl)ncn3)cc2)CC1 [INFIGRATINIB] | pIC50 | 6.45 |
| C=CC(=O)N1C[C@@H](n2nc(C#Cc3cc4ncn(C5CC5)c4cc3F)c(C(N)=O)c2NC)C[C@@H]1COC | pIC50 | 8.46 |
| C=CC(=O)N1C[C@@H](n2nc(C#Cc3cc4ncn(C5CC5)c4cc3Cl)c(C(N)=O)c2NC)C[C@@H]1COC | pIC50 | 8.21 |
| CCN1C(=O)N(c2c(F)c(OC)cc(OC)c2F)Cc2cnc3[nH]c(CN4CCOCC4)cc3c21 [PEMIGATINIB] | pIC50 | 6.38 |
| COc1cc(OC)cc(N(CCNC(C)C)c2ccc3ncc(-c4cnn(C)c4)nc3c2)c1 [ERDAFITINIB] | pIC50 | 6.88 |
| C=CC(=O)N1CC[C@H](n2nc(C#Cc3cc(OC)cc(OC)c3)c3c(N)ncnc32)C1 [FUTIBATINIB] | pIC50 | 7.86 |

---

Known Cmax of a selection of compounds
# TEST: Cmax in Beagle dog at 15 mg/kg,po administrated at 0.25 to 24 hrs by LC-MS/MS analysis
# Assay type: ADME, organism-based, Canis lupus familiaris
# CONDITION_LABEL: in vivo, time 0.25-24 hrs

| COMPOUND | Cmax |
| --- | --- |
| C=CC(=O)N1C[C@@H](n2nc(C#Cc3c(F)cc4c(ncn4C4CC4)c3F)c(C(N)=O)c2NC)C[C@@H]1COC [RESIGRATINIB] | 815 ng/mL |
| C=CC(=O)N1C[C@@H](n2nc(C#Cc3cc4ncn(C5CC5)c4cc3F)c(C(N)=O)c2NC)C[C@@H]1COC | 770 ng/mL |

---

Listed below: AUC(0-t) values for each entry.
# TEST: AUC (0 to 24 hrs) in Beagle dog at 10 mg/kg,po administrated at 0.25 to 24 hrs by LC-MS/MS analysis
# Format: ADME, organism-based, Canis lupus familiaris
# CONDITION_LABEL: in vivo, time 0.25-24 hrs
RECORDED_ENDPOINT: AUC(0-t) (ng·h/mL)

| STRUCTURE_NOTATION | RECORDED_ENDPOINT | ENDPOINT_RESULT |
| --- | --- | --- |
| C=CC(=O)N1C[C@@H](n2nc(C#Cc3cc4ncn(C5CC5)c4cc3Cl)c(C(N)=O)c2NC)C[C@@H]1COC | AUC(0-t) | 498 |
| C=CC(=O)N1C[C@@H](n2nc(C#Cc3ccc4c(c3)ncn4C3CC3)c(C(N)=O)c2NC)C[C@@H]1COC | AUC(0-t) | 312 |

---

# System: RT-112
# TEST: Antiproliferative activity against human RT-112 cells expressing FGFR3 assessed as inhibition of cell growth incubated for 5 days by Cell-titer glo assay
# CONDITION_LABEL: RT-112, 120 h
pIC50: −log10 of the molar value.
The threshold is inclusive: pIC50 of exactly 8 counts as yes (1); values below receive no (0).

| STRUCTURE_NOTATION | ASSIGNED_CLASS |
| --- | --- |
| COc1cc(OC)cc(N(CCNC(C)C)c2ccc3ncc(-c4cnn(C)c4)nc3c2)c1 | yes (1) |
| C=CC(=O)N1CC[C@H](n2nc(C#Cc3cc(OC)cc(OC)c3)c3c(N)ncnc32)C1 | no (0) |

---

# Tested on: RT-112
# TEST: Antiproliferative activity against human RT-112 cells expressing FGFR3 assessed as inhibition of cell growth incubated for 5 days by Cell-titer glo assay
# CONDITION_LABEL: RT-112, 120 h
Attribute: IC50
RECORDED_ENDPOINT: IC50

| COMPOUND | TARGET_OF_ASSAY | ENDPOINT_RESULT |
| --- | --- | --- |
| CCN1C(=O)N(c2c(F)c(OC)cc(OC)c2F)Cc2cnc3[nH]c(CN4CCOCC4)cc3c21 [PEMIGATINIB] | RT-112 | 6 nM |
| CCN1CCN(c2ccc(Nc3cc(N(C)C(=O)Nc4c(Cl)c(OC)cc(OC)c4Cl)ncn3)cc2)CC1 [INFIGRATINIB] | RT-112 | 10 nM |
| C=CC(=O)N1C[C@@H](n2nc(C#Cc3cc4ncn(C5CC5)c4cc3Cl)c(C(N)=O)c2NC)C[C@@H]1COC | RT-112 | 11.2 nM |
